Values from patent US9060514B2

- Assay comment: Flash point of solvents
- Format: physicochemical
- Measurement setup: measured with Cleveland open cup tester or value from 15509 chemical products
Returns: string. Value is condition met if measured Flash point is below 80 °C, and condition not met if it is greater than or equal to it.

                           compound        label_class
0                          COCCOCCO  condition not met
1                         COCCOCCOC      condition met
2                           CC(C)CO      condition met
3                       CCCCOCCOCCO  condition not met
4       COCC(C)O (stereo not drawn)      condition met
5  C[S+](C)[O-] [Dimethylsulfoxide]  condition not met

IN: In plain terms, does "CC(C)O" come in under 80 °C for Flash point?
OUT: condition met

IN: In plain terms, does "OCCOCCO" come in under 80 °C for Flash point?
OUT: condition not met
